Test Target: HLA-A*02:01 (Homo sapiens, UniProt P04439, D140Y/D185E/D98H/E176V/E277Q/G131W/G231S/I119V/I121R/I166T/I218V/L300P/L318F/N151K/N90K/P208A/P217A/Q86G/Q94H/R138H/R169H/T345S)
Assay Summary: MHC binding assay (UV-ligand exchange, ELISA of exchange yield)
Reported Conditions: binding to HLA-A*02:01, UV-ligand exchange
From the text: Candidate peptides for T cell based therapies according to the present invention were further tested for their MHC binding capacity (affinity). The individual peptide-MHC complexes were produced by UV-ligand exchange, where a UV-sensitive peptide is cleaved upon UV-irradiation, and exchanged with the peptide of interest as analyzed. Only peptide candidates that can effectively bind and stabilize the peptide-receptive MHC molecules prevent dissociation of the MHC complexes. […]
Measured Property: Peptide exchange (MHC class I binding score, peptide exchange yield)

// below: answered substances
INSERT INTO measurements (substance, result) VALUES
  ('149 (NLLELFVQL; listed as Homo sapiens) [compound 149]', '“+++” (≥50 = +++)'),
  ('78 (SLFSSLEPQIQPV; listed as Homo sapiens) [compound 78]', '“+++” (≥50 = +++)'),
  ('310 (FLVDTPLARA; listed as Homo sapiens) [compound 310]', '“++++” (≥75% = ++++)'),
  ('95 (SVIPQIQKV; listed as Homo sapiens) [compound 95]', '“+++” (≥50 = +++)'),
  ('577 (VMFEDGVLMRL; listed as Homo sapiens) [compound 577]', '“+++” (≥50 = +++)'),
  ('490 (FLLQHVQEL; listed as Homo sapiens) [compound 490]', '“+++” (≥50 = +++)'),
  ('159 (GLVGNPLPSV; listed as Homo sapiens) [compound 159]', '“++++” (≥75% = ++++)');

Now for a further substance.
What value of Peptide exchange (MHC class I binding score, peptide exchange yield) has been reported for the following substance? 337 (HLLSELEAAPYL; listed as Homo sapiens) [compound 337]
“++++” (≥75% = ++++)
